Experimental Protocol: qHTS assay for identifying genotoxic compounds that show differential cytotoxicity against isogenic chicken DT40 cell lines with known DNA damage response pathways - Rev3 mutant cell line (AID 743014); also: nearly all actives have a fitted effect of over 55% in size
Setup Conditions: chicken DT40 Rev3-/- viability, CellTiter-Glo, 40 h; series mostly up to 68.4 µM
Results filed as inconclusive are left out. Calls of active or inactive are those of the source. Calls follow the shape of the dose curve; as a rule, active = well fitted cell-killing curve with a large enough effect in the repeat runs; inconclusive = weak or mixed curves, or effect the other way; inactive = no such curve, though single readings can be large or run the other way.
Lab note: assign the record to one of active, inactive

Some entries whose results are on file:
{"Compound": "C[C@@H]1CC[C@H]2[C@@H](C)C(=O)O[C@@H]3O[C@@]4(C)CC[C@@H]1[C@]32OO4", "Group Label": "active"}
{"Compound": "IC(I)=C(I)I", "Group Label": "active"}

Recorded test outcome, item `COC(=O)C(Cl)C(=O)OC`
inactive

Recorded test outcome, item `BrCCCCBr`
inactive

Recorded test outcome, item COC(=O)c1cncn1C(C)c1ccccc1 (stereo not drawn)
inactive

Recorded test outcome, item `O=C(O)C(F)(F)C(F)(F)C(F)(F)C(F)(F)C(F)(F)C(F)(F)C(F)(F)C(F)(F)C(F)(F)F`
inactive

Recorded test outcome, item `O=[N+]([O-])c1cc(C(F)(F)F)cc([N+](=O)[O-])c1Cl`
inactive

Recorded test outcome, item `N#Cc1ccc(Cl)cc1`
inactive
